All values here come from PubChem BioAssay AID686979.

- experimentSummary: qHTS for Inhibitors of human tyrosyl-DNA phosphodiesterase 1 (TDP1): qHTS in cells in presence of CPT; further: nearly all actives have a fitted effect of over 55% in size
- condition: chicken DT40 Tdp1-/-;hTDP1 cells + 20 nM CPT, ATP luminescence, 48 h; series mostly up to 46.2 µM
In all, about 420,000 compounds went through this assay and about 50,000 (12%) were called active. Another 26% or so got no clear call; they are omitted. The call rests on the fitted dose curve; in most records, active means well fitted inhibition curve with a large enough effect; inconclusive means small, poorly fitted or top-dose-only effect; inactive means flat fitted curve, though single readings scatter. Many of the other results were omitted from the sample, so actives are more common in it than they were.
Respond only with the outcome that fits, drawn from active, inactive

Query :: Recorded test outcome, item `CCOC(=O)c1c(NC(=O)c2cc(CC)on2)sc(C(C)=O)c1C`
Result :: inactive

Query :: Recorded test outcome, item `Cc1ccc(-c2noc(CSc3nnc(-c4cccs4)n3C)n2)cc1`
Result :: inactive

Query :: Recorded test outcome, item `Cc1cccc(-n2cc(CN3CCN(C(=O)c4ncn[nH]4)CC3)c(-c3cccc(F)c3)n2)c1`
Result :: inactive

Query :: Recorded test outcome, item `CNC(=O)CN1C(=O)c2cccnc2Sc2ccccc21`
Result :: inactive

Query :: Recorded test outcome, item `O=C(NC(=S)Nc1ccccc1N1CCCCC1)c1ccc(F)cc1`
Result :: inactive

Query :: Recorded test outcome, item CC1CC(C)CN(C/C=C/c2ccccc2[N+](=O)[O-])C1 (configuration not stated)
Result :: inactive

Query :: Recorded test outcome, item `COc1ccc(NC(=O)c2ccco2)cc1NC(=O)c1ccc(C#N)cc1F`
Result :: inactive

Query :: Recorded test outcome, item `COc1ccc(OCC(=O)N2CCN(C(=O)COc3ccccc3)CC2)cc1`
Result :: inactive

Query :: Recorded test outcome, item `COc1ccc(-c2nnc(SCC(=O)c3ccco3)n2-c2ccccc2)cc1`
Result :: inactive

Query :: Recorded test outcome, item `CCNS(=O)(=O)c1cc(-c2nnc(Nc3cccc(C(F)(F)F)c3)c3ccccc23)ccc1C`
Result :: active

Query :: Recorded test outcome, item `CNS(=O)(=O)c1ccc(NC(=O)Nc2ccc3c(c2)OCO3)cc1`
Result :: inactive

Query :: Recorded test outcome, item `CCCC(=O)Nc1ccc(C(=O)N/N=C/c2ccc[nH]2)cc1`
Result :: inactive

Query :: Recorded test outcome, item `COc1ccc(OCC(=O)NCCS(=O)(=O)N2CCN(c3ccc(F)cc3)CC2)cc1`
Result :: inactive

Query :: Recorded test outcome, item `O=[N+]([O-])c1ccccc1/C=C/CN1CCC(O)CC1`
Result :: inactive

Query :: Recorded test outcome, item `COC(=O)c1ccc(C(=O)OC)c(NC(=S)N2CCN(c3ccc(F)cc3)CC2)c1`
Result :: inactive

Query :: Recorded test outcome, item `CCOC(=O)N1CCN(Cc2nc3ccc([N+](=O)[O-])cc3c(=O)n2-c2cccc(OC)c2)CC1`
Result :: inactive

Query :: Recorded test outcome, item O=C(CC1C(=O)NCCN1CC(c1ccccc1)c1ccccc1)NCCc1cn[nH]c1 (configuration not stated)
Result :: inactive

Query :: Recorded test outcome, item `Cc1ccc2c(c1)nnc1nnc(SCC(=O)O)n12`
Result :: inactive

Query :: Recorded test outcome, item Cc1ccc(CSCC2Nc3ccc(C(=O)N4CCN(c5ccc(F)cc5)CC4)cc3NC2=O)cc1 (configuration not stated)
Result :: active

Query :: Recorded test outcome, item `Cc1ccc(S(=O)(=O)N(C)c2ccc(OCC(=O)OCC(=O)N(CC#N)c3ccccc3)cc2)cc1`
Result :: inactive

Query :: Recorded test outcome, item CC(NC(=S)NC1CCCCC1)C(c1ccccc1)N1CCOCC1 (configuration not stated)
Result :: inactive

Query :: Recorded test outcome, item `COc1ccc(CNC(=O)COC(=O)C2=Cc3ccccc3OC2)cc1`
Result :: inactive

Query :: Recorded test outcome, item CCOC(=O)c1sc(NC(=O)C2CSC3(C)CCC(=O)N23)nc1C (configuration not stated)
Result :: inactive

Query :: Recorded test outcome, item CCCCn1c(N)c(N(CCC(C)C)C(=O)CC2OC(=O)c3ccccc32)c(=O)[nH]c1=O (configuration not stated)
Result :: inactive

Query :: Recorded test outcome, item `Cc1ccccc1Nc1c([N+](=O)[O-])ccc2nonc12`
Result :: inactive

Query :: Recorded test outcome, item `O=C(CSc1nnc(Cc2ccccc2)n1-c1ccccc1)N1CCOCC1`
Result :: inactive

Query :: Recorded test outcome, item `COCCNS(=O)(=O)c1cc(-c2nn3c(C)nnc3c3ccccc23)ccc1C`
Result :: inactive
